From: patent US20240239801A1

Tested on: Mewo
Experiment: Proliferation inhibition, CellTiter-Glo
Format: cell-based, human
Conditions: Homo sapiens, MeWo, 72 h; Table D-2; 3 days; read-out: Mewo Prolif. EC50
recordedEndpoint: EC50

# input Fill in the blank: the reported EC50 of Cc1ccc2c(Nc3cccc(Cl)c3F)nccc2c1NC(=O)c1csc2c(N)ncnc12 [Belvarafenib, reference compound] is ____.
# output 0.3 to 3 µM

# input Fill in the blank: the reported EC50 of Cc1c(F)cccc1S(=O)(=O)Nc1ccc(F)c(Nc2ncnc3cnc(-n4cnc5c(-c6cccnc6)cccc54)nc23)c1F is ____.
# output 0.3 to 3 µM

----------
Target: BRAF (Homo sapiens, UniProt P15056)
Construct: GST; purchased Millipore Sigma B4062-10UG
Sequence (P15056 whole entry): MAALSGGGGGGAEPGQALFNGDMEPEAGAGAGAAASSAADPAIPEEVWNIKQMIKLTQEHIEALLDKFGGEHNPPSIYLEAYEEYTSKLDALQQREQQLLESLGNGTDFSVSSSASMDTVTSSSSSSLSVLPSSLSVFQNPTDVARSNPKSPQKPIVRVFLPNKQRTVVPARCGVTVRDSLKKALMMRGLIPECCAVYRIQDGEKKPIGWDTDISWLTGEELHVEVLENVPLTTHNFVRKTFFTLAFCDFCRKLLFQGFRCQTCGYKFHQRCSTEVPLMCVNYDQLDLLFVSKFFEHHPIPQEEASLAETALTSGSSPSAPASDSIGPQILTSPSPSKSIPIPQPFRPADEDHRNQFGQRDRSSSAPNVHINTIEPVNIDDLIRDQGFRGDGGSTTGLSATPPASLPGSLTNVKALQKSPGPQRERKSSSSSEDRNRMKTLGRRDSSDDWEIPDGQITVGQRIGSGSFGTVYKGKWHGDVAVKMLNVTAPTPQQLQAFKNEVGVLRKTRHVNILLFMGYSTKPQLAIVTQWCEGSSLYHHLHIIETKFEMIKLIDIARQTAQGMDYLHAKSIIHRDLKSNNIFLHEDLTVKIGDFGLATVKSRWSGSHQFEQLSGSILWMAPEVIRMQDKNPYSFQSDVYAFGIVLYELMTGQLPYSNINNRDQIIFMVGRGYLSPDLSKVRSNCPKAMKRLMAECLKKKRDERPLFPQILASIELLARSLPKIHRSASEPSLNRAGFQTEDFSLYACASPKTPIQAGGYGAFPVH
Assay: BRAF kinase activity assay (ADP-Glo)
Assay type: biochemical
Details: Table 3
pIC50: −log10 of the molar value.
recordedEndpoint: pIC50

# input Report pIC50 for Nc1cccc2c1nnn2-c1ncc2ncnc(Nc3c(F)ccc(NS(=O)(=O)c4cccc(Cl)c4Cl)c3F)c2n1 tested on BRAF (Homo sapiens, UniProt P15056).
# output 8.00 to 9.00

# input Report pIC50 for O=S(=O)(CC1CCOCC1)c1cn(-c2ncc3ncnc(Nc4c(F)ccc(NS(=O)(=O)c5cccc(Cl)c5Cl)c4F)c3n2)c2ccccc12 tested on BRAF (Homo sapiens, UniProt P15056).
# output 8.00 to 9.00

# input Report pIC50 for O=S(=O)(Nc1ccc(F)c(Nc2ncnc3cnc(-n4cnc5ccccc54)nc23)c1F)c1scc(Cl)c1Cl tested on BRAF (Homo sapiens, UniProt P15056).
# output > 9.00

# input Report pIC50 for CCc1ccccc1S(=O)(=O)Nc1ccc(F)c(Nc2ncnc3cnc(-n4cnc5c(N6CCC(O)(CC)CC6)cccc54)nc23)c1F tested on BRAF (Homo sapiens, UniProt P15056).
# output < 8.00

# input Report pIC50 for O=S(=O)(Nc1ccc(F)c(Nc2ncnc3cnc(-n4cc(S(=O)(=O)C5CCOCC5)c5ccccc54)nc23)c1F)c1cccc(Cl)c1Cl tested on BRAF (Homo sapiens, UniProt P15056).
# output > 9.00

# input Report pIC50 for Cc1c(Cl)cccc1S(=O)(=O)Nc1ccc(F)c(Nc2ncnc3cnc(-n4nnc5ccccc54)nc23)c1F tested on BRAF (Homo sapiens, UniProt P15056).
# output 8.00 to 9.00

# input Report pIC50 for O=S(=O)(Nc1ccc(F)c(Nc2ncnc3cnc(-n4cnc5c(N6CC(CF)C6)cccc54)nc23)c1F)c1cccc(Cl)c1Cl tested on BRAF (Homo sapiens, UniProt P15056).
# output < 8.00
